Test system: phosphorylation of Akt at Serine 473
Experiment: pAkt AlphaScreen (U87 cell)
Format: cell-based
Details: Homo sapiens, U-87 MG; U87 MG cells, pAkt Ser473; average
MEASURE NAME: IC50 (µM)
Response body: numeric value in µM, unit text excluded.

Examples from the recorded data:
COMPOUND	MEASURE NAME	MEASURED NUMBER
O=c1c2cccnc2ccn1-c1cnc(Cl)c(NS(=O)(=O)c2ccc(F)cc2)c1	IC50	2.98
CN(C)S(=O)(=O)Nc1cc(N2CCc3nccc(N4CCOCC4)c3C2)cnc1Cl	IC50	0.289
COc1cc(-c2ccnc3ccc(-c4cnc(Cl)c(NS(C)(=O)=O)c4)cc23)ccn1	IC50	0.0259
CS(=O)(=O)Nc1cc(-c2ccc3nccc(-c4cccnc4)c3c2)cnc1-c1cccnc1	IC50	0.255
C[C@@H]1CN(c2ccnc3ccc(-c4cnc(Cl)c(NS(C)(=O)=O)c4)cc23)C[C@@H](C)O1 (racemic) [Example 104]	IC50	0.0284
COCCN(C)S(=O)(=O)Nc1cc(-c2ccc3ncc(=O)n(-c4ccccc4)c3c2)cnc1Cl	IC50	0.0092
O=S1(=O)CCC(Oc2ccnc3ccc(-c4cnc(Cl)c(NS(=O)(=O)c5ccc(F)cc5)c4)cc23)C1 (stereo not shown)	IC50	0.194
Cc1ccccc1OC1CCN(c2ccnc3ccc(-c4cnc(Cl)c(NS(C)(=O)=O)c4)cc23)C1 (stereo not shown)	IC50	0.704
CS(=O)(=O)Nc1cc(-c2ccc3nccc(-c4ccncc4)c3c2)cnc1Cl	IC50	0.0127
COC(C)(C)CNc1ccnc2ccc(-c3cnc(Cl)c(NS(C)(=O)=O)c3)cc12	IC50	2.83

(Q) Data request, read-out IC50, for CN(Cc1cccc(F)c1)c1ccnc2ccc(-c3cnc(Cl)c(NS(C)(=O)=O)c3)cc12
(A) 1.66

(Q) Data request, read-out IC50, for CN(C)c1ccc(-c2ccnc3ccc(-c4cnc(Cl)c(NS(=O)(=O)c5ccc(F)cc5)c4)cc23)cc1
(A) 0.0641

(Q) Data request, read-out IC50, for CC(c1ccccc1)N1CCN(c2ccnc3ccc(-c4cnc(Cl)c(NS(C)(=O)=O)c4)cc23)CC1 (stereo not shown)
(A) 0.758

Provenance of the data: patent US8415376B2
